system: 598228-144-R-J1-PDC complex spheroid viability; assay: Anticancer human tumor 598228-144-R-J1-PDC patient-derived serous endometrial adenocarcinoma cell line growth inhibition [GQUAD]; conditions: second compound 0.0316 µM; first compound 10 µM; stronger effect = lower value
What viability, T/C was measured for each of the following?

In: I would be grateful if you could share the reported viability, T/C for COc1ccc([C@@H](O)c2cc(-c3ncnc4cc(N5CCOCC5)ccc34)c(F)cc2Cl)nn1 + Cc1cnc(CNC(=O)c2c(=O)c3ccc(N4CCCN(C)CC4)nc3n3c2sc2ccccc23)cn1 .
Out: 33.9%

In: I would be grateful if you could share the reported viability, T/C for C#Cc1c(F)ccc2cc(O)cc(-c3ncc4c(N5CC6CCC(C5)N6)nc(OCC56CCCN5CC(F)C6)nc4c3F)c12 (stereo not drawn) + CN(C)c1ccc(Nc2c3ccc(NC(=O)CCN4CCCC4)cc3nc3cc(NC(=O)CCN4CCCC4)ccc23)cc1 .
Out: 101%

In: I would be grateful if you could share the reported viability, T/C for C#Cc1c(F)ccc2cc(O)cc(-c3ncc4c(N5CC6CCC(C5)N6)nc(OCC56CCCN5CC(F)C6)nc4c3F)c12 (stereo not drawn) + Cc1[nH]c2ccc(F)cc2c1-c1nc2c3cccnc3c3ncccc3c2[nH]1 .
Out: 111%

----------
What viability, T/C was measured for each of the following?
system: 598228-144-R-J1-PDC complex spheroid viability; test: Anticancer human tumor 598228-144-R-J1-PDC cell line growth inhibition [GQUAD]; conditions: second compound 0.0316 µM; first compound 10 µM; stronger effect = lower value
Express your answer in %, writing the number without its unit.

In: I would be grateful if you could share the reported viability, T/C for CC1COCCN1c1cc(-c2ccnn2C)c2ccnc(-c3ccn[nH]3)c2n1 (stereo not drawn) + Cc1cnc(CNC(=O)c2c(=O)c3ccc(N4CCCN(C)CC4)nc3n3c2sc2ccccc23)cn1 .
Out: 30.9

In: I would be grateful if you could share the reported viability, T/C for CC1COCCN1c1cc(C2(S(C)(=N)=O)CC2)nc(-c2ccnc3[nH]ccc23)n1 (stereo not drawn) + Cc1[nH]c2ccc(F)cc2c1-c1nc2c3cccnc3c3ncccc3c2[nH]1 .
Out: 50

In: I would be grateful if you could share the reported viability, T/C for Nc1ccn(C2OC(CO)C(O)C2(F)F)c(=O)n1 (stereo not drawn) + Cc1cnc(CNC(=O)c2c(=O)c3ccc(N4CCCN(C)CC4)nc3n3c2sc2ccccc23)cn1 .
Out: 44.6

----------
test system: 598228-144-R-J1-PDC complex spheroid viability; assay: Anticancer human tumor 598228-144-R-J1-PDC cell line growth inhibition [GQUAD]; details: second compound 0.0316 µM; first compound 0.316 µM; stronger effect = lower value;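 also: spheroids exposed to the agents for one week before reading; percent of vehicle DMSO control viability so 100% = untreated growth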
What viability, T/C was measured for each of the following?
Express your answer in %, writing the number without its unit.

In: I would be grateful if you could share the reported viability, T/C for O=C(NO)c1cnc(N2CCN(S(=O)(=O)c3ccc4ccccc4c3)CC2)nc1 + Cc1[nH]c2ccc(F)cc2c1-c1nc2c3cccnc3c3ncccc3c2[nH]1 .
Out: 25.1

In: I would be grateful if you could share the reported viability, T/C for CC(C)n1c(=O)n(C)c2cnc3cc(F)c(-c4ccc(OCCCN5CCCCC5)nc4)cc3c21 + CN(C)c1ccc(Nc2c3ccc(NC(=O)CCN4CCCC4)cc3nc3cc(NC(=O)CCN4CCCC4)ccc23)cc1 .
Out: 102

In: I would be grateful if you could share the reported viability, T/C for C#Cc1c(F)ccc2cc(O)cc(-c3ncc4c(N5CC6CCC(C5)N6)nc(OCC56CCCN5CC(F)C6)nc4c3F)c12 (stereo not drawn) + CN(C)c1ccc(Nc2c3ccc(NC(=O)CCN4CCCC4)cc3nc3cc(NC(=O)CCN4CCCC4)ccc23)cc1 .
Out: 104

----------
tested on: 598228-144-R-J1-PDC complex spheroid viability; assay: Anticancer human tumor 598228-144-R-J1-PDC cell line growth inhibition [GQUAD]; details: second compound 0.1 µM; first compound 3.16 µM; active = viability on the fitted dose curve at most 10% of control; inactive = the rest;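 also: spheroids exposed to the agents for one week before reading; percent of vehicle DMSO control viability so 100% = untreated growth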
Write down the outcome that applies. Available outcomes: Yes = active, No = inactive

In: Tell me the assay call for O=C(NO)c1cnc(N2CCN(S(=O)(=O)c3ccc4ccccc4c3)CC2)nc1 + Cc1[nH]c2ccc(F)cc2c1-c1nc2c3cccnc3c3ncccc3c2[nH]1 please.
Out: Yes

In: Tell me the assay call for C=CCn1c(=O)c2cnc(Nc3ccc(N4CCN(C)CC4)cc3)nc2n1-c1cccc(C(C)(C)O)n1 + CN(C)c1ccc(Nc2c3ccc(NC(=O)CCN4CCCC4)cc3nc3cc(NC(=O)CCN4CCCC4)ccc23)cc1 please.
Out: No

In: Tell me the assay call for COc1cccc2c1C(=O)c1c(O)c3c(c(O)c1C2=O)CC(O)(C(=O)CO)CC3OC1CC(N)C(O)C(C)O1 (stereo not given) + Cc1[nH]c2ccc(F)cc2c1-c1nc2c3cccnc3c3ncccc3c2[nH]1 please.
Out: Yes

In: Tell me the assay call for COc1cc(C2c3cc4c(cc3C(OC3OC5COC(C)OC5C(O)C3O)C3COC(=O)C23)OCO4)cc(OC)c1O (stereo not given) + Cc1cnc(CNC(=O)c2c(=O)c3ccc(N4CCCN(C)CC4)nc3n3c2sc2ccccc23)cn1 please.
Out: No

In: Tell me the assay call for O=C(NO)c1cnc(N2CCN(S(=O)(=O)c3ccc4ccccc4c3)CC2)nc1 + Cc1cnc(CNC(=O)c2c(=O)c3ccc(N4CCCN(C)CC4)nc3n3c2sc2ccccc23)cn1 please.
Out: Yes

----------
system: 598228-144-R-J1-PDC complex spheroid viability; assay: Anticancer human tumor 598228-144-R-J1-PDC cell line growth inhibition [GQUAD]; conditions: second compound 0.316 µM; first compound 0.00316 µM; stronger effect = lower value;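 also: spheroids exposed to the agents for one week before reading; percent of vehicle DMSO control viability so 100% = untreated growth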
Met if viability, T/C is below 80%. Not met if not; exact matches included in Not met.

In: Check if viability, T/C falls below 80% for Cn1ncnc1[C@H]1c2n[nH]c(=O)c3cc(F)cc(c23)N[C@@H]1c1ccc(F)cc1 + CN(C)c1ccc(Nc2c3ccc(NC(=O)CCN4CCCC4)cc3nc3cc(NC(=O)CCN4CCCC4)ccc23)cc1 .
Out: Not met

In: Check if viability, T/C falls below 80% for CCc1c2c(nc3ccc(O)cc13)-c1cc3c(c(=O)n1C2)COC(=O)[C@]3(O)CC + CN(C)c1ccc(Nc2c3ccc(NC(=O)CCN4CCCC4)cc3nc3cc(NC(=O)CCN4CCCC4)ccc23)cc1 .
Out: Met

In: Check if viability, T/C falls below 80% for Cc1[nH]c2ccccc2c1CCNCc1ccc(/C=C/C(=O)NO)cc1 + Cc1cnc(CNC(=O)c2c(=O)c3ccc(N4CCCN(C)CC4)nc3n3c2sc2ccccc23)cn1 .
Out: Met

In: Check if viability, T/C falls below 80% for CCc1c2c(nc3ccc(O)cc13)-c1cc3c(c(=O)n1C2)COC(=O)[C@]3(O)CC + Cc1cnc(CNC(=O)c2c(=O)c3ccc(N4CCCN(C)CC4)nc3n3c2sc2ccccc23)cn1 .
Out: Met

In: Check if viability, T/C falls below 80% for CC[C@@]1(O)C(=O)OCc2c1cc1n(c2=O)Cc2cc3c(CN(C)C)c(O)ccc3nc2-1 + Cc1[nH]c2ccc(F)cc2c1-c1nc2c3cccnc3c3ncccc3c2[nH]1 .
Out: Not met

----------
test system: 598228-144-R-J1-PDC complex spheroid viability; assay: Anticancer human tumor 598228-144-R-J1-PDC cell line growth inhibition [GQUAD]; conditions: second compound 0.316 µM; first compound 1 µM; stronger effect = lower value;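 also: spheroids exposed to the agents for one week before reading; percent of vehicle DMSO control viability so 100% = untreated growth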
quantity_kind: viability, T/C (%)
Express your answer in %, writing the number without its unit.

In: I would be grateful if you could share the reported viability, T/C for O=c1[nH]cc(F)c(=O)[nH]1 + Cc1[nH]c2ccc(F)cc2c1-c1nc2c3cccnc3c3ncccc3c2[nH]1 .
Out: 85.8

In: I would be grateful if you could share the reported viability, T/C for COc1ccc([C@@H](O)c2cc(-c3ncnc4cc(N5CCOCC5)ccc34)c(F)cc2Cl)nn1 + Cc1cnc(CNC(=O)c2c(=O)c3ccc(N4CCCN(C)CC4)nc3n3c2sc2ccccc23)cn1 .
Out: 49.1

In: I would be grateful if you could share the reported viability, T/C for O=C(NO)c1cnc(N2CCN(S(=O)(=O)c3ccc4ccccc4c3)CC2)nc1 + CN(C)c1ccc(Nc2c3ccc(NC(=O)CCN4CCCC4)cc3nc3cc(NC(=O)CCN4CCCC4)ccc23)cc1 .
Out: 0.5

In: I would be grateful if you could share the reported viability, T/C for CC1COCCN1c1cc(-c2ccnn2C)c2ccnc(-c3ccn[nH]3)c2n1 (stereo unspecified) + Cc1cnc(CNC(=O)c2c(=O)c3ccc(N4CCCN(C)CC4)nc3n3c2sc2ccccc23)cn1 .
Out: 32.5

In: I would be grateful if you could share the reported viability, T/C for CC1COCCN1c1cc(C2(S(C)(=N)=O)CC2)nc(-c2ccnc3[nH]ccc23)n1 (stereo unspecified) + CN(C)c1ccc(Nc2c3ccc(NC(=O)CCN4CCCC4)cc3nc3cc(NC(=O)CCN4CCCC4)ccc23)cc1 .
Out: 61.8

In: I would be grateful if you could share the reported viability, T/C for C=CC(=O)N1CCN(c2nc(=O)n(-c3c(C)ccnc3C(C)C)c3nc(-c4c(O)cccc4F)c(F)cc23)C(C)C1 (stereo unspecified) + Cc1[nH]c2ccc(F)cc2c1-c1nc2c3cccnc3c3ncccc3c2[nH]1 .
Out: 108
